Each entry below lists one item and its recorded Activity value.
molecular target: Peroxisome proliferator-activated receptor alpha (Mus musculus); experiment: Agonist activity at mouse PPARalpha receptor in monkey COS7 cells assessed as activation of CAT reporter gene at 50 uM by transactivation assay relative to Wy,14-643; format: functional, cell-based; details: COS-7
The response must be a number in % with no trailing unit.

These solved cases illustrate the format of a correct answer.
[[record]]
molecule = "CCOC(=O)C(C)(C)Oc1ccc(Cl)cc1"
quantity_name = "Activity"
reported_value = 12.6

[[record]]
molecule = "CC(C)(Oc1ccc(CCNC[C@H](O)c2ccccc2)cc1)C(=O)O"
quantity_name = "Activity"
reported_value = 1.3

[[record]]
molecule = "C[C@H](Oc1ccc(CCNC[C@@H](O)c2ccccc2)cc1)C(=O)O"
quantity_name = "Activity"
reported_value = 1


API: the following record is the query input.
Let me check: "C[C@@H](Oc1ccc(CCNC[C@H](O)c2ccccc2)cc1)C(=O)O" , system Peroxisome proliferator-activated receptor alpha (Mus musculus), measured Activity is 1.1

* * *

biological target: Beta-3 adrenergic receptor (Homo sapiens); experiment: Agonist activity at human adrenergic beta-3 receptor expressed in CHO cells assessed as cAMP levels by DELFIA method; assay type: functional, cell-based
Sequence (P13945 whole entry): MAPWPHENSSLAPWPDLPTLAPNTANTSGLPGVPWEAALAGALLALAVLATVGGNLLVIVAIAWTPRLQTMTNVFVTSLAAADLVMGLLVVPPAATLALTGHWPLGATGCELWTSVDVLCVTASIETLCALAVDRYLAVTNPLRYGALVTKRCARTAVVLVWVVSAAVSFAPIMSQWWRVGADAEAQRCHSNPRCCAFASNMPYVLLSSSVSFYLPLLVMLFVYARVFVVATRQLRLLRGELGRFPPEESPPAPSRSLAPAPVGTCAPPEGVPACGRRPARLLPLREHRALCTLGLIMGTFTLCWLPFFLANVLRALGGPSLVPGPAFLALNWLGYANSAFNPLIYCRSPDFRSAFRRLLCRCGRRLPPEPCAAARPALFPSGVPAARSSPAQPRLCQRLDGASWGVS
A collection of compounds and their measured pEC50
Scale explanation: pEC50 corresponds to minus log10 of a concentration expressed in moles per litre.

Example entries and their recorded answers appear below.
[[record]]
compound = "CC(Oc1ccc(CCNCC(O)c2ccccc2)cc1)C(=O)O (racemic)"
quantity_name = "pEC50"
reported_value = 8.42

[[record]]
compound = "C[C@@H](Oc1ccc(CCNC[C@@H](O)c2ccccc2)cc1)C(=O)O (single isomer, unassigned)"
quantity_name = "pEC50"
reported_value = 6.87


pEC50 reported for this compound CNC[C@H](O)c1ccc(O)c(O)c1 [EPINEPHRINE] : 7.51

The compound CC(C)(Oc1ccc(CCNCC(O)c2ccccc2)cc1)C(=O)O (racemic) showed pEC50 equal to 8.31

For this compound ( "C[C@@H](Oc1ccc(CCNC[C@H](O)c2ccccc2)cc1)C(=O)O" ), measured pEC50 is 6.63

The recorded pEC50 for C[C@H](Oc1ccc(CCNC[C@H](O)c2ccccc2)cc1)C(=O)O (single isomer, unassigned) is 8.57

Entry "C[C@H](Oc1ccc(CCNC[C@@H](O)c2ccccc2)cc1)C(=O)O" ; pEC50 = 6.74

* * *

target: Peroxisome proliferator-activated receptor alpha (Mus musculus); experiment: Agonist activity at mouse PPARalpha receptor in monkey COS7 cells assessed as activation of CAT reporter gene at 300 uM by transactivation assay relative to Wy,14-643; assay type: functional, cell-based; details: COS-7
QUANTITY_NAME: Activity (%)
Give a bare numeral; the unit % is implied.

// worked examples, Activity included
[[record]]
compound = "CC(C)(Oc1ccc(CCNCC(O)c2ccccc2)cc1)C(=O)O (racemic)"
quantity_name = "Activity"
reported_value = 1.8

[[record]]
compound = "C[C@@H](Oc1ccc(CCNC[C@@H](O)c2ccccc2)cc1)C(=O)O (single isomer, unassigned)"
quantity_name = "Activity"
reported_value = 3.6

[[record]]
compound = "C[C@H](Oc1ccc(CCNC[C@H](O)c2ccccc2)cc1)C(=O)O (single isomer, unassigned)"
quantity_name = "Activity"
reported_value = 1.5

[[record]]
compound = "CCOC(=O)C(C)(C)Oc1ccc(Cl)cc1"
quantity_name = "Activity"
reported_value = 89.9

[[record]]
compound = "C[C@H](Oc1ccc(CCNC[C@@H](O)c2ccccc2)cc1)C(=O)O"
quantity_name = "Activity"
reported_value = 1.8

[[record]]
compound = "CC(C)(Oc1ccc(CCNC[C@@H](O)c2ccccc2)cc1)C(=O)O"
quantity_name = "Activity"
reported_value = 2.1


Consider CC(Oc1ccc(CCNCC(O)c2ccccc2)cc1)C(=O)O (racemic) . Its measured Activity is 1.8

Measured Activity, "C[C@@H](Oc1ccc(CCNC[C@H](O)c2ccccc2)cc1)C(=O)O" : 2.6

Recorded result, "CC(C)(Oc1ccc(CCNC[C@H](O)c2ccccc2)cc1)C(=O)O" , Activity: 1.5

# compound "CC(C)(Oc1ccc(Cl)cc1)C(=O)O" ; its Activity = 86.5

Just for reference, ChEMBL document CHEMBL1144675 is where these values come from.
